System: SK-MEL-5
experimental details: NCI tumour cell line growth inhibition, 48 h
Active and inactive are the calls of the source. No stated cut-off is given here; in the data, active = GI50 up to about 1.1 µM and inactive = higher.
endpoint: GI50

compound: N#CC1(C#N)C2C=CC(C3CC=CC32)C1(C#N)C#N (stereo unspecified)
GI50: 7.73 µM (inactive)
--
compound: Cc1ccc(/C(=C\C(=O)C(=O)NC23CC4CC(CC(C4)C2)C3)Sc2ccccc2)cc1
GI50: > 10 µM (inactive)
--
compound: Cc1ccc(P(c2ccc(C)cc2)c2ccc(C)cc2)cc1
GI50: 16.6 µM (inactive)
--
compound: CCCCS(=O)(=O)Nc1ccc(Nc2c3ccccc3nc3ccccc23)c(OC)c1
GI50: 5.2 µM (inactive)
--
compound: COc1ccc(C(C2=C(O)COC2=O)c2cc3c(cc2O)OCO3)cc1OC (stereo unspecified)
GI50: > 100 µM (inactive)

Task item: Consider the compound CCC(C)[C@H]1C(=O)N=C(N)N1C(=O)OCc1ccccc1 (stereo partly specified) and give its measured GI50.
Reply: > 100 µM (inactive)

Task item: Consider the compound Cc1ccc(NC(=O)C(=O)C2NC(=S)NC2=O)c([N+](=O)[O-])c1 (stereo unspecified) and give its measured GI50.
Reply: > 100 µM (inactive)

Task item: Consider the compound CC1CC(NN)=Nc2ccccc2N1 (stereo unspecified) and give its measured GI50.
Reply: > 100 µM (inactive)

Task item: Consider the compound COc1cc2c(cc1OC)-c1cc(OC)c(OC)cc1[C@H]1CN3CCC[C@@]3(O)C=C21 and give its measured GI50.
Reply: < 0.0001 µM (active)

Task item: Consider the compound Nc1ccn(C2CC(O)C(COP(=O)(S)OC3CC(n4ccc(N)nc4=O)OC3CO)O2)c(=O)n1 (stereo unspecified) and give its measured GI50.
Reply: > 100 µM (inactive)

###

Catalogue of GI50 readings, one per entry.
Tested on: OVCAR-8
experimental details: NCI tumour cell line growth inhibition, 48 h
The source made the active and inactive calls. Rule as the data show it: active = GI50 up to about 1.1 µM and inactive = higher.

Completed entries (count: 2):
compound: CCN1CCC(O)(/C=C/c2ccc(C(C)C)cc2)C(C(=O)/C=C/c2ccc(C(C)C)cc2)C1 (stereo not drawn)
tgt: OVCAR-8
endpoint: GI50
test result: 1.96 µM (inactive)
//
compound: COc1cc2c(cc1OC)C/C(=N\O)c1cc(OC)c(OC)cc1/C=C\2
tgt: OVCAR-8
endpoint: GI50
test result: 10.4 µM (inactive)

Task item: Look up GI50 with OVCAR-8 for this compound: Cc1nc2ccccc2c(=O)n1/N=C(\N=N\c1cc(Cl)ccc1Cl)c1cccc(-c2ccco2)c1
Reply: 95.9 µM (inactive)

###

Tested on: SF-295
experimental details: NCI tumour cell line growth inhibition, 48 h
Activity calls are given as the source filed them. Rule as the data show it: active = GI50 up to about 1.1 µM and inactive = higher. *1 amine or outer side, *2 acyl side, *3 side chain or, on linkers, in order; H or OH if unused. Where a SMILES comes first, the peptide text is derived from it. [ ]: non-standard residue; d: D form. The star is where a group is joined. ξ: configuration not given here. X43 = CCC(=O)CC(O)CC(C)CC(N[*:1])C(=O)[*:2]; ξLeu(3ξ-OH) = CC(C)C(O)C(N)C(=O)O; ξPro(4ξ-Me) = CC1CNC(C(=O)O)C1; X42 = CCC(C)/C=C/C(=O)*; Aib = CC(C)(N)C(=O)O; X44 = CC(CN(C)C)N*; βAla = NCCC(=O)O
Classes to choose from: true (1) = active, false (0) = inactive

See these solved cases before continuing.
compound: C/C(CC(O)(C(F)(F)F)C(F)(F)F)=N\NC(N)=O
assigned label: false (0)

compound: COC(=O)c1cc(=O)nc2cc3cccccc3n12
assigned label: false (0)

compound: CCC(=O)CC(O)CC(C)CC(NC(=O)C1CC(C)CN1C(=O)/C=C/C(C)CC)C(=O)NC(C(=O)NC(C)(C)C(=O)NC(CC(C)C)C(=O)NC(CC(C)C)C(=O)NC(C)(C)C(=O)NC(C)(C)C(=O)NCCC(=O)NC(C)CN(C)C)C(O)C(C)C (stereo unspecified) (X42-[ξPro(4ξ-Me)][X43][ξLeu(3ξ-OH)][Aib]LL[Aib][Aib][βAla]-X44; configuration not given here)
assigned label: true (1)

compound: COc1cc(C=O)cc(/C=N/c2ccc(Br)cc2)c1O
assigned label: false (0)

compound: CC(C)N(C(=O)C12C3C4C5C3C1(C(=O)O)C5C42)C(C)C (stereo unspecified)
assigned label: false (0)

compound: N#Cc1ccsc1Nc1ccccc1[N+](=O)[O-]
assigned label: false (0)

compound: COc1cccc2c(NNc3ccc(Cl)cc3)c3ccc([N+](=O)[O-])cc3nc12
assigned label: false (0)

compound: COC(=O)/C=C/c1ccccc1N=[S@](C)(=O)c1ccc(C)cc1
assigned label: false (0)

Task item: Recorded test call requested for COc1ccc(N2C(=O)C3c4[nH]c5c(C)cccc5c4C4CCC(C(C)C)CC4C3C2=O)cc1 (stereo unspecified)
Reply: false (0)

Task item: Recorded test call requested for Cc1cc2c(cc1C)C(=O)C1(C2)Cc2c(C)ccc(C)c2C1=O (stereo unspecified)
Reply: false (0)

Task item: Recorded test call requested for CC1=C(C(=O)Nc2ccc(Cl)c(Cl)c2)C(c2ccc([N+](=O)[O-])cc2)C(C(=O)Nc2ccc(Cl)c(Cl)c2)=C(C)N1
Reply: false (0)
